test system: compound stability in 1x PBS, percent remaining; assay: compound stability in phosphate-buffered saline, ADME assay, biochemical, 1x PBS, with and without 50% ACN, set 2 (AID 624456);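 note: percent left after two days of incubation at room temperature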
value type: stability (%)

In the examples that follow, each entry is paired with its recorded stability.
| compound | unit symbol | stability |
| --- | --- | --- |
| CC(=O)c1ccc(N2CCN(S(=O)(=O)c3ccc4c(c3)CC(=O)N4)CC2)cc1 | % | 95.7 |
| Cc1nc(SCc2nc3ccccc3[nH]2)c2oc3ccccc3c2n1 | % | 74.2 |

A = CCCN1CNc2c(c(=O)[nH]c(=S)n2CCc2ccc(OC)c(OC)c2)C1
B = COc1ccc(S(=O)(=O)n2nc(OC(=O)c3ccccc3)cc2N)cc1
C = O=C1C2CC=CCC2C(=O)N1c1n[nH]c(-c2ccccc2)n1 (stereo not drawn)
D = CCN1CCN(c2nc3ccccc3nc2C(C#N)C(=O)OC2CCCCC2)CC1 (stereo not drawn)
Data request: Descending sort on stability required. Reply with the item labels sorted in the order that was asked for.
Data returned: A, C, D, B
(A: 78.5%, C: 50.8%, D: 33.4%, B: 11.1%)
